measurement_description: Stability in human plasma assessed as half life at 1 mM measured for 24 hrs by LC-MS analysis
Format: ADME, cell-free

{"columns": ["smiles_notation", "half-life at 1000 µM [h]"],
 "data": [
  ["CCCC[C@H](NC(=O)[C@@H]1CCCN1C(=O)CNC(=O)[C@H](CCCCN)NC(=O)[C@H](Cc1c[nH]cn1)NC(=O)[C@H](CO)NC(=O)[C@H](CC(C)C)NC(=O)[C@H](CCCCNC(=N)N)NC(=O)[C@@H]1CCCN1C(=O)[C@H](CCCNC(=N)N)NC(=O)[C@@H]1CCC(=O)N1)C(=O)NC(C)(C)C(=O)N[C@@H](Cc1ccc(Br)cc1)C(=O)O", 1.31],
  ["CCCC[C@H](NC(=O)[C@@H]1CCCN1C(=O)CNC(=O)[C@H](CCCCN)NC(=O)[C@H](Cc1c[nH]cn1)NC(=O)[C@H](CO)NC(=O)[C@H](CC(C)C)NC(=O)[C@H](CCCNC(=N)N)NC(=O)[C@@H]1CCCN1C(=O)[C@H](CCCNC(=N)N)NC(=O)[C@@H]1CCC(=O)N1)C(=O)NC(C)(C)C(=O)N[C@@H](Cc1ccc(Br)cc1)C(=O)O", 0.81]
]}

---

target: UniProt:P35414
Sequence (P35414 whole entry): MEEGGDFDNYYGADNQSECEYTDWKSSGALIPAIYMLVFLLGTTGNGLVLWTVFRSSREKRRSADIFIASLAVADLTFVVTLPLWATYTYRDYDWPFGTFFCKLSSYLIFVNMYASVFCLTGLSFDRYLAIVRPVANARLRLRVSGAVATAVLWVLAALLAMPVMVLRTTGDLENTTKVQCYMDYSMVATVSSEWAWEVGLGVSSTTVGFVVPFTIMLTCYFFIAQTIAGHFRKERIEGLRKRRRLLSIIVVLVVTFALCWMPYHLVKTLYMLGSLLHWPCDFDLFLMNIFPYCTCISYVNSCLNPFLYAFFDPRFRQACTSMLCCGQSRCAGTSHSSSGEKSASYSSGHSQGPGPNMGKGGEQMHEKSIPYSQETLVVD
measurement_description: Activation of recombinant human APJ receptor expressed in rat Chem-5 cells assessed as increase in Ca2+ mobilization by FLIPR Calcium 6-QF fluorescent dye based assay
Type: cell-based
pEC50: −log10 of the molar value. Non-standard residues stand in square brackets, D forms with d. Residues, ends and D or L forms follow the SMILES beside them. Phe(4-Br) = N[C@@H](Cc1ccc(Br)cc1)C(=O)O; NMeCha = CN[C@@H](CC1CCCCC1)C(=O)O; hArg = N=C(N)NCCCC[C@H](N)C(=O)O; Nle = CCCC[C@H](N)C(=O)O; Aib = CC(C)(N)C(=O)O

{"columns": ["compound", "pEC50"],
 "data": [
  ["CCCC[C@H](NC(=O)[C@@H]1CCCN1C(=O)CNC(=O)[C@H](CCCCN)NC(=O)[C@H](Cc1c[nH]cn1)NC(=O)[C@H](CO)NC(=O)[C@H](CC(C)C)NC(=O)[C@H](CCCCNC(=N)N)NC(=O)[C@@H]1CCCN1C(=O)[C@H](CCCNC(=N)N)NC(=O)[C@@H]1CCC(=O)N1)C(=O)NC(C)(C)C(=O)N[C@@H](Cc1ccc(Br)cc1)C(=O)O", 8.66],
  ["CCCC[C@H](NC(=O)[C@@H]1CCCN1C(=O)CNC(=O)[C@H](CCCCN)NC(=O)[C@H](Cc1c[nH]cn1)NC(=O)[C@H](CO)NC(=O)[C@H](CC1CCCCC1)N(C)C(=O)[C@H](CCCCNC(=N)N)NC(=O)[C@@H]1CCCN1C(=O)[C@H](CCCNC(=N)N)NC(=O)[C@H](CCC(N)=O)NC(=O)[C@H](CCCNC(=N)N)NC(=O)[C@H](CCCNC(=N)N)NC(=O)[C@H](Cc1ccccc1)NC(=O)[C@@H](N)CCCCN)C(=O)NC(C)(C)C(=O)N[C@@H](Cc1ccc(Br)cc1)C(=O)O (H-KFRRQRP[hArg][NMeCha]SHKGP[Nle][Aib][Phe(4-Br)]-OH)", 7.14],
  ["CCCC[C@H](NC(=O)[C@@H]1CCCN1C(=O)CNC(=O)[C@H](CCCCN)NC(=O)[C@H](Cc1c[nH]cn1)NC(=O)[C@H](CO)NC(=O)[C@H](CC1CCCCC1)NC(=O)[C@H](CCCCNC(=N)N)NC(=O)[C@@H]1CCCN1C(=O)[C@H](CCCNC(=N)N)NC(=O)[C@@H]1CCC(=O)N1)C(=O)NC(C)(C)C(=O)N[C@@H](Cc1ccc(Br)cc1)C(=O)O", 8.43]
]}

---

measurement_description: Stability in human plasma assessed as half life at 1 mM measured for 24 hrs by LC-MS analysis
Format: ADME, cell-free
Non-standard residues stand in square brackets, D forms with d. Residues, ends and D or L forms follow the SMILES beside them. Phe(4-Br) = N[C@@H](Cc1ccc(Br)cc1)C(=O)O; NMeCha = CN[C@@H](CC1CCCCC1)C(=O)O; hArg = N=C(N)NCCCC[C@H](N)C(=O)O; Cha = N[C@@H](CC1CCCCC1)C(=O)O; NMeL = CN[C@@H](CC(C)C)C(=O)O; Nle = CCCC[C@H](N)C(=O)O; Aib = CC(C)(N)C(=O)O
As shown below, each of these compounds has a reported half-life at 1000 µM value.

{"columns": ["compound", "half-life at 1000 µM"],
 "data": [
  ["CCCC[C@H](NC(=O)[C@@H]1CCCN1C(=O)CNC(=O)[C@H](CCCCN)NC(=O)[C@H](Cc1c[nH]cn1)NC(=O)[C@H](CO)NC(=O)[C@H](CC(C)C)N(C)C(=O)[C@H](CCCNC(=N)N)NC(=O)[C@@H]1CCCN1C(=O)[C@H](CCCNC(=N)N)NC(=O)[C@@H]1CCC(=O)N1)C(=O)NC(C)(C)C(=O)N[C@@H](Cc1ccc(Br)cc1)C(=O)O", "3.54 h"],
  ["CCCC[C@H](NC(=O)[C@@H]1CCCN1C(=O)CNC(=O)[C@H](CCCCN)NC(=O)[C@H](Cc1c[nH]cn1)NC(=O)[C@H](CO)NC(=O)[C@H](CC1CCCCC1)NC(=O)[C@H](CCCCNC(=N)N)NC(=O)[C@@H]1CCCN1C(=O)[C@H](CCCNC(=N)N)NC(=O)[C@H](CCC(N)=O)NC(=O)[C@H](CCCNC(=N)N)NC(=O)[C@H](CCCNC(=N)N)NC(=O)[C@H](Cc1ccccc1)NC(=O)[C@@H](N)CCCCN)C(=O)NC(C)(C)C(=O)N[C@@H](Cc1ccc(Br)cc1)C(=O)O (H-KFRRQRP[hArg][Cha]SHKGP[Nle][Aib][Phe(4-Br)]-OH)", "6.28 h"],
  ["CCCC[C@H](NC(=O)[C@@H]1CCCN1C(=O)CNC(=O)[C@H](CCCCN)NC(=O)[C@H](Cc1c[nH]cn1)NC(=O)[C@H](CO)NC(=O)[C@H](CC1CCCCC1)NC(=O)[C@H](CCCNC(=N)N)NC(=O)[C@@H]1CCCN1C(=O)[C@H](CCCNC(=N)N)NC(=O)[C@@H]1CCC(=O)N1)C(=O)NC(C)(C)C(=O)N[C@@H](Cc1ccc(Br)cc1)C(=O)O", "1.77 h"],
  ["CCCC[C@H](NC(=O)[C@@H]1CCCN1C(=O)CNC(=O)[C@H](CCCCN)NC(=O)[C@H](Cc1c[nH]cn1)NC(=O)[C@H](CO)NC(=O)[C@H](CC(C)C)NC(=O)[C@H](CCCCNC(=N)N)NC(=O)[C@@H]1CCCN1C(=O)[C@H](CCCNC(=N)N)NC(=O)[C@H](CCC(N)=O)NC(=O)[C@H](CCCNC(=N)N)NC(=O)[C@H](CCCNC(=N)N)NC(=O)[C@H](Cc1ccccc1)NC(=O)[C@@H](N)CCCCN)C(=O)NC(C)(C)C(=O)N[C@@H](Cc1ccc(Br)cc1)C(=O)O (H-KFRRQRP[hArg]LSHKGP[Nle][Aib][Phe(4-Br)]-OH)", "3.06 h"],
  ["CCCC[C@H](NC(=O)[C@@H]1CCCN1C(=O)CNC(=O)[C@H](CCCCN)NC(=O)[C@H](Cc1c[nH]cn1)NC(=O)[C@H](CO)NC(=O)[C@H](CC(C)C)NC(=O)[C@H](CCCNC(=N)N)NC(=O)[C@@H]1CCCN1C(=O)[C@H](CCCNC(=N)N)NC(=O)[C@H](CCC(N)=O)NC(=O)[C@H](CCCNC(=N)N)NC(=O)[C@H](CCCNC(=N)N)NC(=O)[C@H](Cc1ccccc1)NC(=O)[C@@H](N)CCCCN)C(=O)NC(C)(C)C(=O)N[C@@H](Cc1ccc(Br)cc1)C(=O)O (H-KFRRQRPRLSHKGP[Nle][Aib][Phe(4-Br)]-OH)", "0.9 h"],
  ["CCCC[C@H](NC(=O)[C@@H]1CCCN1C(=O)CNC(=O)[C@H](CCCCN)NC(=O)[C@H](Cc1c[nH]cn1)NC(=O)[C@H](CO)NC(=O)[C@H](CC(C)C)N(C)C(=O)[C@H](CCCNC(=N)N)NC(=O)[C@@H]1CCCN1C(=O)[C@H](CCCNC(=N)N)NC(=O)[C@H](CCC(N)=O)NC(=O)[C@H](CCCNC(=N)N)NC(=O)[C@H](CCCNC(=N)N)NC(=O)[C@H](Cc1ccccc1)NC(=O)[C@@H](N)CCCCN)C(=O)NC(C)(C)C(=O)N[C@@H](Cc1ccc(Br)cc1)C(=O)O (H-KFRRQRPR[NMeL]SHKGP[Nle][Aib][Phe(4-Br)]-OH)", "8.29 h"],
  ["CCCC[C@H](NC(=O)[C@@H]1CCCN1C(=O)CNC(=O)[C@H](CCCCN)NC(=O)[C@H](Cc1c[nH]cn1)NC(=O)[C@H](CO)NC(=O)[C@H](CC1CCCCC1)N(C)C(=O)[C@H](CCCNC(=N)N)NC(=O)[C@@H]1CCCN1C(=O)[C@H](CCCNC(=N)N)NC(=O)[C@H](CCC(N)=O)NC(=O)[C@H](CCCNC(=N)N)NC(=O)[C@H](CCCNC(=N)N)NC(=O)[C@H](Cc1ccccc1)NC(=O)[C@@H](N)CCCCN)C(=O)NC(C)(C)C(=O)N[C@@H](Cc1ccc(Br)cc1)C(=O)O (H-KFRRQRPR[NMeCha]SHKGP[Nle][Aib][Phe(4-Br)]-OH)", "2.9 h"]
]}
